- target entity: human adenosine A2A receptors (Homo sapiens)
- Sequence (P29274 whole entry): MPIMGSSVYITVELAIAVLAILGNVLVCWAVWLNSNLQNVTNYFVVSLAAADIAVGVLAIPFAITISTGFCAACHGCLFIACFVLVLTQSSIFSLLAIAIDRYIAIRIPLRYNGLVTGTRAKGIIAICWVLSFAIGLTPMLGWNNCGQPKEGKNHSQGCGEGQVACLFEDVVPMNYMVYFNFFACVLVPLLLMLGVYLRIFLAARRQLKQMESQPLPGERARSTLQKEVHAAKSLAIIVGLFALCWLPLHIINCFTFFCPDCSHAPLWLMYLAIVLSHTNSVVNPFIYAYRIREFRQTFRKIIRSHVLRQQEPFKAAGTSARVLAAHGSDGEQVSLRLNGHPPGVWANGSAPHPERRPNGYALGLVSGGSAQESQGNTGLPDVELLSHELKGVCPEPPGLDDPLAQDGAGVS
Item-by-item account of % cAMP production hA2A

stdin: Entry CCCCC#Cc1nc(N)c2ncn([C@@H]3O[C@H](CO)[C@@H](O)[C@H]3O)c2n1 has what % cAMP production hA2A?
stdout: 61% (58–64)

stdin: Likewise for CCCCC#Cc1nc(N)c2nc(NCc3ccccc3)n([C@@H]3O[C@H](CO)[C@@H](O)[C@H]3O)c2n1 ?
stdout: 83% (61–106)

stdin: Likewise for CCNc1nc2c(N)nc(I)nc2n1[C@@H]1O[C@H](CO)[C@@H](O)[C@H]1O ?
stdout: 77% (76–78)

###

- target entity: human A3 receptor (Homo sapiens)
- Construct: expressed in transfected cells; host or cells: HEK 293
- experiment: Radioligand binding, displacement of [125I]AB-MECA from human A3 receptor expressed in HEK 293 cells
endpoint label: pKi
Keep in mind that pKi stands for -log10 of concentration in molar terms.

[[record]]
compound = "CCCC/C=C/c1nc(N)c2nc(NCCC)n([C@@H]3O[C@H](CO)[C@@H](O)[C@H]3O)c2n1 [Compound 19, 2-((E)-1-hexenyl)-8-propylaminoadenosine]"
recorded_value = 4.84

[[record]]
compound = "CCCCC#Cc1nc(N)c2nc(NC)n([C@@H]3O[C@H](CO)[C@@H](O)[C@H]3O)c2n1"
recorded_value = 5.25

[[record]]
compound = "CCCC/C=C/c1nc(N)c2ncn([C@@H]3O[C@H](CO)[C@@H](O)[C@H]3O)c2n1 [Compound 4, 2-((E)-1-hexenyl)adenosine]"
recorded_value = 7.13


stdin: Entry CCCCC#Cc1nc(N)c2nc(NCCC)n([C@@H]3O[C@H](CO)[C@@H](O)[C@H]3O)c2n1 has what pKi?
stdout: 5.67

stdin: Likewise for CCNc1nc2c(N)nc(I)nc2n1[C@@H]1O[C@H](CO)[C@@H](O)[C@H]1O ?
stdout: 5.29

stdin: Likewise for CCCCC#Cc1nc(N)c2nc(C#CCCCC)n([C@@H]3O[C@H](CO)[C@@H](O)[C@H]3O)c2n1 ?
stdout: 6.60

stdin: Likewise for CCCNc1nc2c(N)nc(I)nc2n1[C@@H]1O[C@H](CO)[C@@H](O)[C@H]1O ?
stdout: 5.06

stdin: Likewise for CCCC/C=C/c1nc(N)c2nc(NCC)n([C@@H]3O[C@H](CO)[C@@H](O)[C@H]3O)c2n1 [Compound 18, 2-((E)-1-hexenyl)-8-ethylaminoadenosine] ?
stdout: 4.76

stdin: Likewise for CCCCC#Cc1nc(N)c2nc(NCc3ccccc3)n([C@@H]3O[C@H](CO)[C@@H](O)[C@H]3O)c2n1 ?
stdout: 5.10

###

Item-by-item account of melting point

[[record]]
compound = "CCCCC#Cc1nc(N)c2nc(NCc3ccccc3)n([C@@H]3O[C@H](CO)[C@@H](O)[C@H]3O)c2n1"
recorded_value = "141 to 143 °C"

[[record]]
compound = "CCCC/C=C/c1nc(N)c2nc(NCC)n([C@@H]3O[C@H](CO)[C@@H](O)[C@H]3O)c2n1 [Compound 18, 2-((E)-1-hexenyl)-8-ethylaminoadenosine]"
recorded_value = "128 to 130 °C"

[[record]]
compound = "CCNc1nc2c(N)nc(I)nc2n1[C@@H]1O[C@H](CO)[C@@H](O)[C@H]1O"
recorded_value = "205 to 207 °C"

[[record]]
compound = "CCCC/C=C/c1nc(N)c2nc(NC)n([C@@H]3O[C@H](CO)[C@@H](O)[C@H]3O)c2n1 [Compound 17, 2-((E)-1-Hexenyl)-8-methylaminoadenosine]"
recorded_value = "161 to 166 °C"

[[record]]
compound = "CNc1nc2c(N)nc(I)nc2n1[C@@H]1O[C@H](CO)[C@@H](O)[C@H]1O"
recorded_value = "162 to 164 °C"


# evaluate next
stdin: Entry CCCCC#Cc1nc(N)c2nc(NCCC)n([C@@H]3O[C@H](CO)[C@@H](O)[C@H]3O)c2n1 has what melting point?
stdout: 184 to 186 °C

###

- target entity: adenosine A1 receptor (Rattus norvegicus)
- Sequence (P25099 whole entry): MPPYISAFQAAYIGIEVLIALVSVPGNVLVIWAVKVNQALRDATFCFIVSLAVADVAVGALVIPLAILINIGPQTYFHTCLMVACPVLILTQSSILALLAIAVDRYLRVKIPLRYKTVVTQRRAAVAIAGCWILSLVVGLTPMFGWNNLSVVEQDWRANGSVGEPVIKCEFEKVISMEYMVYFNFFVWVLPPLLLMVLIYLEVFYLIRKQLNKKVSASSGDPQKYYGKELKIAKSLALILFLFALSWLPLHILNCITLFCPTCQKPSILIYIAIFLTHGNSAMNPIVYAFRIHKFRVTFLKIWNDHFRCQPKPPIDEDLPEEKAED
- experiment: biochemical
Item-by-item account of Ki
Answer format: numeric, nM implied, no suffix.

Consider the worked cases shown below.
[[record]]
compound = "CCCC/C=C/c1nc(N)c2nc(NCc3ccccc3)n([C@@H]3O[C@H](CO)[C@@H](O)[C@H]3O)c2n1 [Compound 21, 2-((E)-1-hexenyl)-8-benzylaminoadenosine]"
target_entity = "adenosine A1 receptor (Rattus norvegicus)"
endpoint_label = "Ki"
recorded_value = 2110

[[record]]
compound = "CCCCC#Cc1nc(N)c2nc(NCc3ccccc3)n([C@@H]3O[C@H](CO)[C@@H](O)[C@H]3O)c2n1"
target_entity = "adenosine A1 receptor (Rattus norvegicus)"
endpoint_label = "Ki"
recorded_value = 756

[[record]]
compound = "CCCC/C=C/c1nc(N)c2nc(NCCCC)n([C@@H]3O[C@H](CO)[C@@H](O)[C@H]3O)c2n1 [Compound 20, 2-((E)-1-hexenyl)-8-butylaminoadenosine]"
target_entity = "adenosine A1 receptor (Rattus norvegicus)"
endpoint_label = "Ki"
recorded_value = 906


# evaluate next
stdin: Entry CCCCC#Cc1nc(N)c2nc(NCCCC)n([C@@H]3O[C@H](CO)[C@@H](O)[C@H]3O)c2n1 has what Ki?
stdout: 539

###

- target entity: UniProt P29274
- condition info: cAMP production compared to reference agonist CGS 21680; words
- Method: CHO cells expressing the human adenosine A2A receptors were grown overnight as a monolayer in 24 wells tissue culture plates (400 μl/well; 2×10^5 cells/well). cAMP generation was performed in Dulbecco's Modified Eagles Medium (DMEM)/N-2-hydroxyethylpiperazin-N′-2-ethansulfonic acid HEPES) buffer (0.60 g HEPES/50 ml DMEM pH 7.4). […] The amounts of cAMP were determined after a protocol with cAMP binding protein^12 with the following minor modifications. […]
endpoint label: agonist behaviour (intrinsic activity) at the adenosine A2A receptor

Consider the worked cases shown below.
[[record]]
compound = "Nc1nc(NCc2ccccc2)nc2c1nc(NCc1ccccc1)n2[C@@H]1O[C@H](CO)[C@@H](O)[C@H]1O"
recorded_value = "full agonists"

[[record]]
compound = "CCCCC#Cc1nc(N)c2nc(NCC)n([C@@H]3O[C@H](CO)[C@@H](O)[C@H]3O)c2n1"
recorded_value = "full agonist"

[[record]]
compound = "CCCCC#Cc1nc(N)c2nc(NCc3ccccc3)n([C@@H]3O[C@H](CO)[C@@H](O)[C@H]3O)c2n1"
recorded_value = "full agonists"

[[record]]
compound = "CCCCC#Cc1nc(N)c2nc(C#CCCCC)n([C@@H]3O[C@H](CO)[C@@H](O)[C@H]3O)c2n1"
recorded_value = "full agonists"

[[record]]
compound = "CCCCC#Cc1nc(N)c2ncn([C@@H]3O[C@H](CO)[C@@H](O)[C@H]3O)c2n1"
recorded_value = "partial agonism"


stdin: Entry CCCC/C=C/c1nc(N)c2ncn([C@@H]3O[C@H](CO)[C@@H](O)[C@H]3O)c2n1 [Compound 4, 2-((E)-1-hexenyl)adenosine] has what agonist behaviour (intrinsic activity) at the adenosine A2A receptor?
stdout: partial agonism

stdin: Likewise for Nc1nc(I)nc2c1nc(NCc1ccccc1)n2[C@@H]1O[C@H](CO)[C@@H](O)[C@H]1O ?
stdout: full agonists

stdin: Likewise for Nc1nc(I)nc2c1ncn2[C@@H]1O[C@H](CO)[C@@H](O)[C@H]1O ?
stdout: full agonist

###

- target entity: human A3 receptor (Homo sapiens, UniProt P0DMS8)
- Construct: expressed in transfected cells; host or cells: HEK 293
- Sequence (P0DMS8 whole entry): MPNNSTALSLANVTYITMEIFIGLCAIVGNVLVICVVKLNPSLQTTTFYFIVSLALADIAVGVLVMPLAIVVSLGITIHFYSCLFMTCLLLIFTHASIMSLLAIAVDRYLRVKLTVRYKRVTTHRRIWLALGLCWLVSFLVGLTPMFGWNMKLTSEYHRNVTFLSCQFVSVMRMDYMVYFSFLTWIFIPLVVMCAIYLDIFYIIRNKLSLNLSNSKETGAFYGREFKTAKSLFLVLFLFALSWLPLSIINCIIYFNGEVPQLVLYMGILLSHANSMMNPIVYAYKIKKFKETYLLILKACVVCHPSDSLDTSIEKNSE
- experiment: Radioligand binding, displacement of [125I]AB-MECA from human A3 receptor expressed in HEK 293 cells
- condition info: [125I]AB-MECA, human A3 receptor in HEK 293 cells; 10 μM; n=2, mean value
endpoint label: % displacement at 10^-5 M, A3

Consider the worked cases shown below.
[[record]]
molecule = "CCCC/C=C/c1nc(N)c2nc(NCCCC)n([C@@H]3O[C@H](CO)[C@@H](O)[C@H]3O)c2n1 [Compound 20, 2-((E)-1-hexenyl)-8-butylaminoadenosine]"
recorded_value = "47.4%"

[[record]]
molecule = "CCCCC#Cc1nc(N)c2nc(NCCCC)n([C@@H]3O[C@H](CO)[C@@H](O)[C@H]3O)c2n1 [Compound 15, 2-(1-hexynyl)-8-butylaminoadenosine]"
recorded_value = "64.3%"

[[record]]
molecule = "CCCCNc1nc2c(N)nc(I)nc2n1[C@@H]1O[C@H](CO)[C@@H](O)[C@H]1O [Compound 10, 2-Iodo-8-butylaminoadenosine]"
recorded_value = "43.1%"


stdin: Entry Nc1nc(I)nc2c1nc(NCc1ccccc1)n2[C@@H]1O[C@H](CO)[C@@H](O)[C@H]1O [Compound 11, 2-iodo-8-benzylaminoadenosine] has what % displacement at 10^-5 M, A3?
stdout: 39.5%

stdin: Likewise for Nc1nc(NCc2ccccc2)nc2c1nc(NCc1ccccc1)n2[C@@H]1O[C@H](CO)[C@@H](O)[C@H]1O [Compound 23, 2,8-di-benzylaminoadenosine] ?
stdout: 54.1%

stdin: Likewise for Nc1nc(I)nc2c1nc(Br)n2[C@@H]1O[C@H](CO)[C@@H](O)[C@H]1O [Compound 5, 2-iodo-8-bromoadenosine] ?
stdout: 6.2%

stdin: Likewise for CCCC/C=C/c1nc(N)c2nc(NCc3ccccc3)n([C@@H]3O[C@H](CO)[C@@H](O)[C@H]3O)c2n1 [Compound 21, 2-((E)-1-hexenyl)-8-benzylaminoadenosine] ?
stdout: 24.3%
